Measured pIC50, listed per entry for reference.
# Assay system: SARM1 (Homo sapiens)
# Construct: AviTag […]; made in house; host or cells: NRK1-HEK293T cells, transiently transfected; the clarified sonicated lysate was used without purification
# Sequence (Q6SZW1 with tags, fused parts or gaps): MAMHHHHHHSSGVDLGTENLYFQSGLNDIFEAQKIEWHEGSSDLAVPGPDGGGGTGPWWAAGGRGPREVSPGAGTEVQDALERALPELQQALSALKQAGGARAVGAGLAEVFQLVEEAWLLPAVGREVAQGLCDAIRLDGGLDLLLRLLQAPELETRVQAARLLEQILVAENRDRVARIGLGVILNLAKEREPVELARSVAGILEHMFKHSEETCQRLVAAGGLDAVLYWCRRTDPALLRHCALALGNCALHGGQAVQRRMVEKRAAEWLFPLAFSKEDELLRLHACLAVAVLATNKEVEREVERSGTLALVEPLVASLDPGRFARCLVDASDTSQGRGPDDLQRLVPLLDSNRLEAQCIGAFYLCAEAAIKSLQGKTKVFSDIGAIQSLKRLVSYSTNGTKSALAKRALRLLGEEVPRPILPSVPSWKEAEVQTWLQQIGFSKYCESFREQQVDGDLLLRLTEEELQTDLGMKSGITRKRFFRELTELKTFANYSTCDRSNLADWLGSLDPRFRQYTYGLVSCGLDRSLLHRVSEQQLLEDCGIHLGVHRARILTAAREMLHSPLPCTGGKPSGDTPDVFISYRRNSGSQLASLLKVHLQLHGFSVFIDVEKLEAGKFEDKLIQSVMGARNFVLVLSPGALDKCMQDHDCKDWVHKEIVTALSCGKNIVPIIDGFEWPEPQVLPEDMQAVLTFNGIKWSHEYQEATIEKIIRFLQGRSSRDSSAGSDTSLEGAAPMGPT
# Assay details: ARM-SAM-TIR SARM1 IC50 assay (NADase activity, NAD+ cleavage)
# Format: biochemical
# Measurement conditions: ARM-SAM-TIR lysate 5 μg/mL from NRK1-HEK293T cells; 2 h pre-incubation with compound, 5 μM NAD+, 2 hr room temperature; NAD+ and ADPR by RapidFire mass spectrometry; read-out: SARM1 IC50
pIC50: −log10 of the molar value.

Below, 2 molecules whose answers are already recorded.
[
  {
    "Molecule": "N#Cc1cc(N2CCCC23CCOC3)nc2ccc(Br)cc12 (stereo not shown)",
    "pIC50": "> 5.30"
  },
  {
    "Molecule": "N#Cc1cc(N2CCC[C@H](NC(=O)c3c[nH]cn3)C2)nc2ccc(Br)cc12",
    "pIC50": "> 5.30"
  }
]

Reported pIC50, molecule CNC(=O)C1CCN(c2cc(C#N)c3cc(Cl)ccc3n2)C1 (stereo not shown) : ____
4.82 to 5.30

Similarly, `N#Cc1cc(N2CC[C@@H](O)C2)nc2ccc(Cl)cc12` ?
> 5.30

Consider next the molecule `COCCNC(=O)[C@H]1CCCN(c2cc(C#N)c3cc(Br)ccc3n2)C1` in the same way.
> 5.30

Please answer likewise for CN1CCC(Nc2cc(C#N)c3cc(Cl)ccc3n2)C1=O (stereo not shown)
> 5.30

Similarly, `Cc1ccc2nc(N3CCC(N)CC3)cc(C#N)c2c1` ?
4.82 to 5.30

----------
# Assay system: SARM1 (Homo sapiens)
# Construct: AviTag […]; made in house; host or cells: NRK1-HEK293T cells, transiently transfected; the clarified sonicated lysate was used without purification
# Assay details: ARM-SAM-TIR SARM1 IC50 assay (NADase activity, NAD+ cleavage)
# Type: biochemical
# Measurement conditions: ARM-SAM-TIR lysate 5 μg/mL from NRK1-HEK293T cells; 2 h pre-incubation with compound, 5 μM NAD+, 2 hr room temperature; NAD+ and ADPR by RapidFire mass spectrometry; read-out: SARM1 IC50
pIC50: −log10 of the molar value.
Below is a list of entries, each paired with its recorded pIC50 value.

Study these solved cases before continuing.
[
  {
    "Compound": "CC(=O)NC1(C)CCN(c2cc(C#N)c3cc(Br)ccc3n2)CC1 [Example 114]",
    "pIC50": "> 5.30"
  },
  {
    "Compound": "N#Cc1cc(-c2cccnc2)nc2ccc(Cl)cc12 [Example 87]",
    "pIC50": "4.52 to 4.82"
  },
  {
    "Compound": "CC(=O)N1CCN(c2cc(C#N)c3cc(Cl)ccc3n2)CC1 [Example 35]",
    "pIC50": "> 5.30"
  },
  {
    "Compound": "C[C@H]1CCCN(c2cc(C#N)c3cc(Cl)ccc3n2)C1 [Example 63]",
    "pIC50": "> 5.30"
  },
  {
    "Compound": "N#Cc1cc(N2CCC[C@H](NC(=O)c3cn[nH]c3)C2)nc2ccc(Br)cc12 [Example 127]",
    "pIC50": "> 5.30"
  }
]

Which pIC50 is reported for this compound? Cn1cc(-c2cc(C#N)c3cc(Cl)ccc3n2)cn1 [Example 86]
4.82 to 5.30

What do you get for CS(=O)(=O)C1CCN(c2cc(C#N)c3cc(Cl)ccc3n2)CC1 [Example 55] ?
4.82 to 5.30

One more compound: Cc1cc(N2CCC(NCCO)CC2)nc2ccc(Cl)cc12 [Example 9]
< 4.52

Moving on to the next compound: COC1CCN(c2cc(C#N)c3cc(Cl)ccc3n2)CC1 [Example 54]
> 5.30

Record: N#Cc1cc(N2CCC(NCCO)CC2)nc2ccccc12 [Example 8]
< 4.52

Do the same for N#Cc1cc(NCc2cccc(C(N)=O)c2)nc2ccc(Cl)cc12 [Example 45] please
> 5.30

Follow-up entry: N#Cc1cc(Cl)nc2ccc(Cl)cc12 [Example 15]
< 4.52

Next up: N#Cc1cc(N2CCC(C(N)=O)CC2)nc2ccc(Cl)cc12 [Example 56]
4.82 to 5.30

And CN(C)c1cc(C#N)c2cc(Cl)ccc2n1 [Example 5] ?
> 5.30
